The origin of these recorded values is patent US20100273189A1.

- SYSTEM: biotinylated HRP (Armoracia rusticana, UniProt P00433)
- Construct: purchased Roche Diagnostics, Indianapolis, Ind., USA
- Sequence (P00433 31-338 limits assumed): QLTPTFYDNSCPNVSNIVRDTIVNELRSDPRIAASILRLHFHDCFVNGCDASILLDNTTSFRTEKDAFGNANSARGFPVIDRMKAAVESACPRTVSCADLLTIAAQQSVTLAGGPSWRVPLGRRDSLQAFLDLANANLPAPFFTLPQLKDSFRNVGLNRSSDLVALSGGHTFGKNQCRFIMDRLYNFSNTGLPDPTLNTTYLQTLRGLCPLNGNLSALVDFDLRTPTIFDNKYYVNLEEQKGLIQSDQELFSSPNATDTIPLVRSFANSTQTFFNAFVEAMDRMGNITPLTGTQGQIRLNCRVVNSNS
- MEASUREMENT_NOTES: Model system for selection of SSIA (M280 btn-BSA-AK1-streptavidin particles + Btn-HRP:HRP)
- Type: biochemical
- CONDITION_CONTEXT: Btn-HRP 10 ng/mL, total HRP 500 ng/mL; SSIA final 100 μM

{"columns": ["COMPOUND", "B-HRP10 light intensity"],
 "data": [
  ["Nc1ccccc1O", "8,632"],
  ["NNC(=O)c1cccnc1 [Nicotinic Hydrazide]", "2,106,471"],
  ["N[C@@H](CCC(=O)N[C@@H](CS)C(=O)NCC(=O)O)C(=O)O", "2,480,764"],
  ["N[C@@H](CS)C(=O)O", "2,483,411"],
  ["Cc1c(C)c2c(c(C)c1O)CC[C@@](C)(CCC[C@H](C)CCC[C@H](C)CCCC(C)C)O2 (racemic) [(+/−)-alpha-Tocopherol, (±)-a-Tocopherol]", "1,253,187"],
  ["COc1cc(/C=C/C(=O)O)ccc1O", "715,313"],
  ["CC(=O)N[C@@H](CS)C(=O)O", "1,757,607"],
  ["Nc1ccc(C(=O)O)cc1O [4-Amino-3-hydroxybenzoic acid, 4-amino-3-hydroxybenzoic acid]", "441,455"],
  ["Cc1c(O)cc2c(c1C)O[C@](C)(CCC[C@H](C)CCC[C@H](C)CCCC(C)C)CC2 [(+)-gamma-Tocopherol, (+)-y-Tocopherol]", "1,686,079"]
]}
